Assignment: determine reported Kd for the given binders.
Target: T1, Plasmodium falciparum histidine-rich protein II (HRP-II) (Plasmodium falciparum, UniProt P05227 22-332)
T1 construct: Coating antigen of all ELISAs; also called HRP-II protein; MA-HRPII Ag protein
T1 sequence (looked up): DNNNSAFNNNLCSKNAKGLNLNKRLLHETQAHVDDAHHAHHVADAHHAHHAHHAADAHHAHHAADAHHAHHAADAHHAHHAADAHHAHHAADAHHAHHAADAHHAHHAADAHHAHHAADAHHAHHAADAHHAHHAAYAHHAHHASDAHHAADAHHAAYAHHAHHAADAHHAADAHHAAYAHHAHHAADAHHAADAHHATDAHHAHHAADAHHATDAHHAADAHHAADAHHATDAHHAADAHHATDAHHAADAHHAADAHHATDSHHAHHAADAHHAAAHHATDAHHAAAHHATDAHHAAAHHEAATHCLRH
Test: indirect ELISA, four antigen coating concentrations;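 also: optical density read across an antibody dilution series at each antigen coating level, curves plotted on log scale, KD derived as reciprocal of the averaged constant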

// worked examples, Kd included
Binder	Kd
Mutation 1-31 (antibody, mouse IgG2b, kappa, V domains shown, Mutation 1 as framework) VH: EVQLQQSGPEVVKPGASVKISCKASGTTLTDYYMNWVKQSHGKGLEWIGDINPINGGTAYQQKFRDKATLTVDKSSNTAYMELRSLTSEDSALYYCTKGAEDYWGQGTTLTVSS VL: DVVLTQTPLSLSVTIGQPASISCKSSQSLLYSNGKIYLNWFQQRPGQSPKRLMYQISKLEPGIPDRFSGSGSETDFTLKISRVEAEDLGVYYCLQGTYTPQTFGGGTKLEIKR	0.0946 nM
Mutation 1-36 (antibody, mouse IgG2b, kappa, V domains shown, Mutation 1 as framework) VH: EVQLQQSGPEVVKPGASVKISCKASGTTLTDYYMNWVKQSHGKGLEWIGDLNPIQGGTAYNQKFRDKATLTVDKSSNTAYMELRSLTSEDSALYYCTRGAEDYWGQGTTLTVSS VL: DVVLTQTPLSLSVTIGQPASISCKSSQSLLYSNGKIYLNWFQQRPGQSPKRLMYQISKLDPGIPDRFSGSGSETDFTLKISRVEAEDLGVYYCLQGTYSPQTFGGGTKLEIKR	0.473 nM
Mutation 1-30 (antibody, mouse IgG2b, kappa, V domains shown, Mutation 1 as framework) VH: EVQLQQSGPEVVKPGASVKISCKASGSTLTDYYMNWVKQSHGKGLEWIGDLNPIQGGTAYNQKFRDKATLTVDKSSNTAYMELRSLTSEDSALYYCTKGAEDYWGQGTTLTVSS VL: DVVLTQTPLSLSVTIGQPASISCKSSQSIIYSNGKIYLNWFQQRPGQSPKRLMYQISKLDPGIPDRFSGSGSETDFTLKISRVEAEDLGVYYCLQATYSPQTFGGGTKLEIKR	0.233 nM

Shifting focus to the binder that follows.
Looking for the measured Kd of Mutation 1-50 (antibody, mouse IgG2b, kappa, V domains shown, Mutation 1 as framework) VH: EVQLQQSGPEVVKPGASVKISCKASGYTITDYYMNWVKQSHGKGLEWIGDVNPIQGGTAYQQKFRDKATLTVDKSSNTAYMELRSLTSEDSALYYCTRGAEDYWGQGTTLTVSS VL: DVVLTQTPLSLSVTIGQPASISCKSSQSLLYSNGKIYLNWFQQRPGQSPKRLMYQLSKLEPGIPDRFSGSGSETDFTLKISRVEAEDLGVYYCLQATYYPQTFGGGTKLEIKR , can you help?
0.382 nM

From: patent US20220002395A1
